Test system: A. baumannii ATCC19606
conditionSummary: ATCC19606, 4 h, pH 7.4
Description: […]
Where a SMILES comes first, the peptide text is derived from it. [ ]: non-standard residue; d: D form. Nleu = CC(C)CNCC(=O)O; Nlys = NCCCCNCC(=O)O
Examples of molecules with documented MIC A. baumannii ATCC19606, full MH at pH 7.4 follow.

# count of solved cases: 3
>>> result("CC(C)C[C@H](NC(=O)[C@H](CCCCN)NC(=O)[C@@H](N)CCCCN)C(=O)N[C@@H](CC(C)C)C(=O)N[C@@H](CCCCN)C(=O)N(CC(=O)N(CC(=O)N(CCCCN)CC(=O)N(CC(=O)N(CC(=O)N(CC(N)=O)CC(C)C)CC(C)C)CC(C)C)CC(C)C)CC(C)C [EB4, KKLLKllklll] (H-KKLLK[Nleu][Nleu][Nlys][Nleu][Nleu][Nleu]-NH2)")
">32 ug/mL"
>>> result("CC(C)CN(CC(N)=O)C(=O)CN(CC(C)C)C(=O)CN(CC(C)C)C(=O)[C@H](CCCCN)NC(=O)CN(CC(C)C)C(=O)CN(CC(C)C)C(=O)[C@H](CCCCN)NC(=O)CN(CC(C)C)C(=O)CN(CC(C)C)C(=O)[C@H](CCCCN)NC(=O)[C@@H](N)CCCCN [EB8, KKllKllKlll] (H-KK[Nleu][Nleu]K[Nleu][Nleu]K[Nleu][Nleu][Nleu]-NH2)")
">32 ug/mL"
>>> result("CC(C)C[C@H](NC(=O)[C@H](CCCCN)NC(=O)CNCCCCN)C(=O)N[C@@H](CC(C)C)C(=O)N[C@@H](CCCCN)C(=O)N[C@@H](CC(C)C)C(=O)N[C@@H](CC(C)C)C(=O)N[C@@H](CCCCN)C(=O)N[C@@H](CC(C)C)C(=O)N[C@@H](CC(C)C)C(=O)N(CC(N)=O)CC(C)C [EB1] (H-[Nlys]KLLKLLKLL[Nleu]-NH2; N-terminus assumed)")
"2 ug/mL"

Reported MIC A. baumannii ATCC19606, full MH at pH 7.4 for CC(C)C[C@H](NC(=O)[C@H](CC(C)C)NC(=O)[C@H](CC(C)C)NC(=O)[C@H](CCCCN)NC(=O)[C@H](CC(C)C)NC(=O)[C@H](CC(C)C)NC(=O)CN(CCCCN)C(=O)CN(CC(C)C)C(=O)CN(CC(C)C)C(=O)CN(CCCCN)C(=O)CNCCCCN)C(N)=O [EB5, kkllkLLKLLL] (H-[Nlys][Nlys][Nleu][Nleu][Nlys]LLKLLL-NH2) was 2 ug/mL

The recorded MIC A. baumannii ATCC19606, full MH at pH 7.4 for CC(C)C[C@H](NC(=O)CN(CC(C)C)C(=O)[C@H](CC(C)C)NC(=O)CN(CCCCN)C(=O)[C@H](CC(C)C)NC(=O)CN(CC(C)C)C(=O)[C@H](CCCCN)NC(=O)CN(CC(C)C)C(=O)[C@H](CC(C)C)NC(=O)CN(CCCCN)C(=O)[C@@H](N)CCCCN)C(N)=O [EB9, KkLlKlLkLlL] (H-K[Nlys]L[Nleu]K[Nleu]L[Nlys]L[Nleu]L-NH2) is >32 ug/mL

response.value for CC(C)C[C@H](NC(=O)[C@H](CC(C)C)NC(=O)[C@H](CC(C)C)NC(=O)CN(CCCCN)C(=O)[C@H](CC(C)C)NC(=O)[C@H](CC(C)C)NC(=O)CN(CCCCN)C(=O)[C@H](CC(C)C)NC(=O)[C@H](CC(C)C)NC(=O)CN(CCCCN)C(=O)CNCCCCN)C(N)=O [EB7, kkLLkLLkLLL] (H-[Nlys][Nlys]LL[Nlys]LL[Nlys]LLL-NH2) (field: MIC A. baumannii ATCC19606, full MH at pH 7.4) = >32 ug/mL
